assay: Plasma pharmacokinetics after single and repeat oral dose, LC-MS/MS, non-compartmental analysis; assay type: in vivo, Beagle dogs; details: both sexes, beagle, dog, plasma, po, 0.1 mg/kg, Steady-state (Day 10); sapanisertib 0.1 mg/kg p.o. QOD; mean (%CV), n = 4; read-out: CMAX (sapanisertib in plasma)
value-kind: Cmax (ng/mL)
Give bare numbers, in ng/mL.

Recorded Cmax (compound CC(C)n1nc(-c2ccc3oc(N)nc3c2)c2c(N)ncnc21 [Sapanisertib] ): 23.6
